Where these numbers come from: patent US5387602A

TARGET ENTITY: Sheep Seminal Vesicle Cyclooxygenase (Ovis aries, UniProt P05979)
Construct: purchased Biomol (Plymouth Meeting, Pa.); host or cells: sheep seminal vesicle
Sequence (P05979 25-600): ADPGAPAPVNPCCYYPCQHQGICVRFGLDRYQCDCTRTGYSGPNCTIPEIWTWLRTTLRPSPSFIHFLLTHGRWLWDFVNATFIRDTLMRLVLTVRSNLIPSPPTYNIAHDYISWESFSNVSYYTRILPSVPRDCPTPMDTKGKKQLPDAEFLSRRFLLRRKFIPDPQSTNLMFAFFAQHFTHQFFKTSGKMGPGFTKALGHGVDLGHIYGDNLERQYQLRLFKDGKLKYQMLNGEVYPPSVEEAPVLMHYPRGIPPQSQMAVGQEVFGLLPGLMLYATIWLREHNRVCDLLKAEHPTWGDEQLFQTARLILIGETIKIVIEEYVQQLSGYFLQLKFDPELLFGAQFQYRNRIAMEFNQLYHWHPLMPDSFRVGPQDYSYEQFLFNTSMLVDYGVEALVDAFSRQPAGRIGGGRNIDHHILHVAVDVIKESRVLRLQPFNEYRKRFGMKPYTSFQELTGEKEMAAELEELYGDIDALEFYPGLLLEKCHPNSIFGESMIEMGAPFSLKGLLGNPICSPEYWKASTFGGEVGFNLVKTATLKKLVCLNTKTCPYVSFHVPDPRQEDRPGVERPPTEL
MEASUREMENT NOTES: Procedure I: sheep seminal vesicle (SSV) cyclooxygenase inhibition
Format: biochemical
SETTINGS: dose 3 MPK unless otherwise stated (so in the source)
Experimental: Sheep Seminal Vesicle Cyclooxygenase Sheep seminal vesicle (SSV) cyclooxygenase (95% pure, prostaglandin endoperoxide synthase, EC 1.14.99.1 specific activity 24 units/mg protein) obtained as a lyophilized powder from Biomol (Plymouth Meeting, Pa.) was reconstituted at a concentration of 59 mg/mL in Hanks' Balanced Salt Solution (HBSS). […] Radioactive cyclooxygenase products (prostaglandin D2, prostaglandin E2, etc.) were measured using a Bioscan System 200 Imaging Scanner. […]
OUTCOME MEASURE: % INHIB. CO (Procedure I) (%)

Reference set, count: 4
COMPOUND: COc1ccc(-n2nc(COC(=O)N(C)O)c(Br)c2-c2ccc(Cl)cc2)cc1 [1-E]
% INHIB. CO (Procedure I) (%): 100
//
COMPOUND: COc1ccc(-n2nc(COC(=O)NO)c(Br)c2-c2ccc(C)cc2)cc1 [1-M]
% INHIB. CO (Procedure I) (%): 75
//
COMPOUND: COc1ccc(-n2nc(CCOC(=O)N(C)O)c(Cl)c2-c2ccc(C)cc2)cc1 [2-I]
% INHIB. CO (Procedure I) (%): 80
//
COMPOUND: COc1ccc(-n2nc(CCCOC(=O)NO)cc2-c2ccc(Cl)cc2)cc1 [3-A]
% INHIB. CO (Procedure I) (%): 40

P. COc1ccc(-n2nc(COC(=O)N(O)C(C)C)cc2-c2ccc(Cl)cc2)cc1 [1-C]
Q. COc1ccc(-n2nc(CCOC(=O)NO)c(Br)c2-c2ccc(C)cc2)cc1 [2-K]
R. COc1ccc(-n2nc(COC(=O)NO)c(Cl)c2-c2ccc(C)cc2)cc1 [1-P]
**Query** Place the items in sequence of falling % INHIB. CO (Procedure I). List the labels according to the requested ordering.
**Result** P, R, Q

I. COc1ccc(-n2nc(CCOC(=O)N(C)O)c(Cl)c2-c2ccc(Cl)cc2)cc1 [2-C]
II. COc1ccc(-n2nc(COC(=O)NO)c(Cl)c2-c2ccc(Cl)cc2)cc1 [1-G]
III. COc1ccc(-n2nc(COC(=O)N(O)C(C)C)c(Cl)c2-c2ccc(Cl)cc2)cc1 [1-I]
**Query** # rank_down: sort by % INHIB. CO (Procedure I), max first Form entry: labels listed in requested order.
**Result** I, II, III
(I: 100%, II: 28%, III: 18%)

I. COc1ccc(-n2nc(COC(=O)N(C)O)c(Cl)c2-c2ccc(Cl)cc2)cc1 [1-H]
II. COc1ccc(-n2nc(CCOC(=O)N(O)C(C)C)c(Cl)c2-c2ccc(Cl)cc2)cc1 [2-D]
III. COc1ccc(-n2nc(CCOC(=O)N(C)O)c(Br)c2-c2ccc(Cl)cc2)cc1 [2-E]
IV. COc1ccc(-n2nc(CCCOC(=O)N(O)C(C)C)c(Br)c2-c2ccc(Cl)cc2)cc1 [3-G]
**Query** Given 4 compounds, produce a descending ranking by % INHIB. CO (Procedure I). Rank them, then answer with their labels in that order.
**Result** I, II, III, IV

1. COc1ccc(-n2nc(COC(=O)N(O)C(C)C)cc2-c2ccc(C)cc2)cc1 [1-L]
2. COc1ccc(-n2nc(CCCOC(=O)N(O)C(C)C)cc2-c2ccc(Cl)cc2)cc1 [3-C]
**Query** Determine, for 1 and 2 , which has the greater value of % INHIB. CO (Procedure I). Write down the label attached to your selection.
**Result** 1
